Just for reference, PubChem BioAssay is where these values come from.

Examples of molecules with documented GFP response, % of DMSO follow.
# Protocol Details: AGP1-GFP expression modulators, hit retest, confirmation, cell-based, flow cytometry, S. cerevisiae, cherry picks (AID 2273);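 note: median GFP channel fluorescence over the whole cell population gate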
# Experimental Conditions: S. cerevisiae AGP1-GFP strain, 3 h, at 10 µM
# unit: % | format: bare number

Worked cases, answers included:
INSERT INTO assay_data (smiles_entry, numeric_readout) VALUES
  ('CC(C)NC(=O)c1ccccc1-c1nc(-c2ccccc2Cl)no1', 98.5),
  ('C(=N\Nc1nc(-c2cccnc2)nc2ccccc12)/c1ccccc1', 95.6),
  ('CC(=O)c1sc(NC(=O)c2ccco2)nc1-c1ccccc1', 94.9),
  ('CCN1C(=O)/C(=C\C(=O)c2cccs2)c2cc(Br)ccc21', 94.5),
  ('Cc1ccc(N2CCN(C(=O)c3ccccc3)CC2)c(C)c1', 94.3);

Now consider a different molecule.
Report GFP response, % of DMSO for `C=CCn1c(=N)c(C#N)cc2c(=O)n3ccccc3nc21` please.
100

###

# Protocol Details: modulators of CIT2-GFP expression in yeast, confirmation, S. cerevisiae, GFP fusion, cherry picks, mother/daughter gates (AID 2274)
# Experimental Conditions: S. cerevisiae CIT2-GFP strain, flow cytometry, 3 h; measured here: mother cell gate; at 10 µM; stronger effect = higher value
Use TRUE when the recorded GFP response, % of DMSO is no lower than 90%; use FALSE when it is lower.

Past entries and their recorded results:
INSERT INTO results (compound, class_name) VALUES
  ('C=CCOc1ccc(C(=O)/C=C2/C(=O)Nc3ccccc32)cc1', 'TRUE'),
  ('CCn1cc([N+](=O)[O-])c(C(=O)Nc2nc(-c3ccc(C)c(C)c3)c(C)s2)n1', 'TRUE'),
  ('Cc1ccc(C(=O)NNC(=S)NC(=O)c2ccco2)cc1', 'TRUE'),
  ('CSc1ccc(-c2cc(=O)c3ccccc3o2)cc1', 'FALSE'),
  ('CC(C)c1nnc(NC(=O)c2nc(S(=O)(=O)Cc3ccccc3)ncc2Cl)s1', 'TRUE'),
  ('O=C(Nc1nc2ccc(F)cc2s1)c1ccccn1', 'TRUE'),
  ('COc1cccc(/C=C2\C(=O)N(c3cccc(C)c3)C(=O)c3ccccc32)c1', 'FALSE'),
  ('Cc1ccc(NC(=O)ON=C2CCCC2)cc1', 'TRUE');

Hello, I need to know if `COc1ccc2cc(-c3cc(C(=O)O)c4ccccc4n3)ccc2c1` has measured GFP response, % of DMSO not below 90%. Thanks!
TRUE

Record `COc1ccc(N/N=C(\C#N)C(N)=O)cc1` ; criterion: GFP response, % of DMSO no lower than 90%. Met?
TRUE

Does GFP response, % of DMSO meet or surpass 90% for `COC(=O)Cc1ccc(OCc2ccc(Cl)nc2)cc1` ?
TRUE

Quick check: does Cc1ccc(N2C(=O)C3C4C=CC(CNC(=S)N5CCN(c6ccccc6)CC5)(O4)C3C2=O)cc1 (stereo not drawn) have GFP response, % of DMSO greater than or equal to 90%?
TRUE

###

# Protocol Details: modulators of CIT2-GFP expression in yeast, confirmation, S. cerevisiae, GFP fusion, cherry picks, mother/daughter gates (AID 2274)
# Experimental Conditions: S. cerevisiae CIT2-GFP strain, flow cytometry, 3 h; measured here: mother cell gate; at 10 µM; stronger effect = higher value
Entries and their measured GFP response, % of DMSO follow.
# value in %; strip the unit string

In the examples that follow, each entry is paired with its recorded GFP response, % of DMSO.
INSERT INTO results (compound, numeric_readout) VALUES
  ('Cn1c(N2CCCC2)nc2c1c(=O)n(Cc1ccc(Cl)cc1)c(=O)n2C', 76),
  ('O=C(O)Cc1csc(-c2cccc(Oc3ccccc3)c2)n1', 93.4),
  ('O=C(NN1C(=O)/C(=C\c2ccc(O)c([N+](=O)[O-])c2)SC1=S)c1ccccc1Cl', 106),
  ('C/C(=N\Nc1ncnc2sc(C)c(C)c12)c1ccccn1', 921),
  ('Cc1cc(C)nc(/N=c2/ssnc2Cl)c1', 116);

Can you look up the measured GFP response, % of DMSO of `CC(C)n1c(=S)[nH]c2c1c(=O)[nH]c(=O)n2C` for me?
102

What measured GFP response, % of DMSO goes with `COc1cccc(NC(=O)Nc2ccc3c(c2)nnn3C)c1` ?
101

Name the reported GFP response, % of DMSO value associated with the compound `O=C(C1CCN(Cc2nc(Cc3cccc(F)c3)no2)CC1)N1CCOCC1`
102

Field request: GFP response, % of DMSO | item: `Cc1cc(NC(=O)c2ccc3c(c2)OCCO3)ccc1NC(=O)c1cc2ccccc2o1`
97.1

Could you share which GFP response, % of DMSO value was measured for O=C1C2C3C=CC(CO)(O3)C2C(=O)N1c1ccccc1-c1ccccc1 (centres undefined) ?
113

What GFP response, % of DMSO value was documented for this compound, `Cc1ccc2nc(/C(C#N)=C/c3ccc(O)c(O)c3)[nH]c2c1` ?
140

###

The following compounds are listed with their measured response values.
# Protocol Details: yeast V-ATPase proton transport modulators, S. cerevisiae, pHLuorin, HTS validation (AID 504600);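 note: plate controls were DMSO for no effect and reference compound for full effect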
# Experimental Conditions: S. cerevisiae pHLuorin cytosolic pH, at 10 µM, stronger effect = higher value
Write it as a number; the unit % goes unstated.

Previously resolved entries follow.
INSERT INTO assay_data (compound, numeric_readout) VALUES
  ('CC(=O)Nc1ccc(OS(=O)(=O)c2c(C)cc(C)cc2C)cc1', 0.9),
  ('Cc1ccc2c(c1)c1c3n2CCCNC3CCC1 (configuration not stated)', 3.62),
  ('O=C(O)c1cccnc1', 4.12);

// response lookup, key: `CC(=O)/C=C/c1ccc(C)o1`
0.22

Returns the measured response for the input compound. Input: `Oc1ccc(/C=C/c2cc(O)cc(O)c2)cc1`
-1.9

What value of response has been recorded for this entry: CC1(C)S[C@@H]2[C@H](NC(=O)C(C(=O)O)c3ccccc3)C(=O)N2[C@H]1C(=O)O (some centres not stated)
-1.48

Look up response for this compound: CC(C(=O)O)c1ccc(N2Cc3ccccc3C2=O)cc1 (configuration not stated)
0.33

###

# Target Or System: Beta-adrenergic receptor kinase 1 (Homo sapiens) (UniProt P25098)
# Sequence (P25098 whole entry, looked up): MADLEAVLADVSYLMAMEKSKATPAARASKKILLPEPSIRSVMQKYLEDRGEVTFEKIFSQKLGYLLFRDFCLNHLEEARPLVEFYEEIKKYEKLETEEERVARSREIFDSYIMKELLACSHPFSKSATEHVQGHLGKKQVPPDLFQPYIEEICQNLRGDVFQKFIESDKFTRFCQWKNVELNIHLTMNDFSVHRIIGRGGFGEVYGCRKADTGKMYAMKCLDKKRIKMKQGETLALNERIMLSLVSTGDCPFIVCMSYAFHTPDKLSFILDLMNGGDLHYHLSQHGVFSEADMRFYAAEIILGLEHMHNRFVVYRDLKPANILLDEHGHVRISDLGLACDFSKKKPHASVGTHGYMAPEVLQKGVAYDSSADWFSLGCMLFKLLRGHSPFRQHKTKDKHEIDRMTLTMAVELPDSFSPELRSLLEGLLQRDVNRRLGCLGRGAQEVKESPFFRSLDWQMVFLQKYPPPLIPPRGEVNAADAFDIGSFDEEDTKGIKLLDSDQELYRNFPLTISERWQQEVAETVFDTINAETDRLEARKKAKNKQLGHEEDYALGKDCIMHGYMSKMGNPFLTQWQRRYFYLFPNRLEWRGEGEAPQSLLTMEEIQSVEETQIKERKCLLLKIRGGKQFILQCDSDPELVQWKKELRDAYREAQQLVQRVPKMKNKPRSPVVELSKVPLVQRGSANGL
# Protocol Details: GRK2 binders displacing RNA aptamer, biochemical, validation, human GRK2, bead flow cytometry (AID 488806)
# Experimental Conditions: bead-bound GRK2, FAM-aptamer displacement, at 10 µM, stronger effect = higher value
Outcome Measure: aptamer binding inhibition (%)
Report the value in % with no unit label.

INSERT INTO measurements (compound, target_or_system, outcome_measure, numeric_readout) VALUES
  ('O=C1NC2(Nc3ccccc31)C(=O)Nc1ccc(Br)cc12 (stereo unspecified)', 'Beta-adrenergic receptor kinase 1 (Homo sapiens) (UniProt P25098)', 'aptamer binding inhibition', 2),
  ('O=C(Oc1cccccc1=O)c1ccccc1', 'Beta-adrenergic receptor kinase 1 (Homo sapiens) (UniProt P25098)', 'aptamer binding inhibition', 6),
  ('COC(=O)c1cc(-c2c(C)oc3cc(OC)ccc3c2=O)c(C)o1', 'Beta-adrenergic receptor kinase 1 (Homo sapiens) (UniProt P25098)', 'aptamer binding inhibition', 1),
  ('Cc1cccc(C2=N/C(=C\c3cccnc3)C(=O)O2)c1', 'Beta-adrenergic receptor kinase 1 (Homo sapiens) (UniProt P25098)', 'aptamer binding inhibition', 2),
  ('O=C1OCCN1/N=C/c1ccc([N+](=O)[O-])o1', 'Beta-adrenergic receptor kinase 1 (Homo sapiens) (UniProt P25098)', 'aptamer binding inhibition', -2);

Now examine the next entry.
What value of measured aptamer binding inhibition is listed for `CCn1c(=N)c(C(=O)NC)cc2c(=O)n3cccc(C)c3nc21` ?
2

###

# Protocol Details: inhibitors of CD8+ T cell-vesicle binding, pilot screen, LFA-1/ICAM-1 modulator project, MLPCN validation set, flow cytometry (AID 2523)
# Experimental Conditions: 2C mouse CD8+ T cells, at 7 µM, stronger effect = lower value; measured here: CD8+/vesicle+ event percentage
Outcome Measure: double positive events (%)
The answer is to be given in %; state only the numeric part.

// solved cases for double positive events follow
INSERT INTO measurements (compound, outcome_measure, quantity_unit, numeric_readout) VALUES
  ('COc1ccc2cc(CCC(C)=O)ccc2c1', 'double positive events', '%', 55.4),
  ('COC(=O)c1ccc(=O)n(Cc2ccco2)c1', 'double positive events', '%', 58.2),
  ('Cc1nc(N[C@@H](Cc2c[nH]c3ccccc23)C(=O)O)c2oc3ccccc3c2n1', 'double positive events', '%', 62.1),
  ('COc1ccccc1C(=O)c1cc2ccc(O)cc2oc1=O', 'double positive events', '%', 57.1),
  ('OC(COCc1ccccc1)CN1CCN(Cc2ccc3c(c2)OCO3)CC1 (centres undefined)', 'double positive events', '%', 59.4);

Endpoint output: double positive events of `Nc1nnc(-c2cccc(Cl)c2Cl)c(N)n1` . Value?
49.8

Quick one: double positive events of `Cc1ccc2c(CN3CCN(Cc4ccc5c(c4)OCO5)CC3)cc(=O)oc2c1C` ?
58.4

// double positive events lookup, key: COc1ccc(OCC(=O)N2c3ccc(C)cc3C3CN(C)CCC32)cc1 (centres undefined)
69.1

What value of double positive events has been recorded for this entry: CC(C)(C)c1ccc(C(O)CCCN2CCC(C(O)(c3ccccc3)c3ccccc3)CC2)cc1 (centres undefined)
64.6

Recorded double positive events of `CCc1cc(=O)oc2cc(OCC=C(C)C)ccc12` , please.
66.7

Quick check: double positive events of C/C(=N\N=C1\NC(=O)C(CC(=O)Nc2ccc(Cl)cc2)S1)c1ccco1 (centres undefined) ?
54.2

Given the compound `O=C(OCCN1CCCC1)C1(c2ccccc2)CCCC1` , what is its reported double positive events?
65.8

Reported double positive events for `CC[C@H]1OC(=O)[C@H](C)[C@@H](O[C@H]2C[C@@](C)(OC)[C@@H](O)[C@H](C)O2)[C@H](C)[C@@H](O[C@@H]2O[C@H](C)C[C@H](N(C)C)[C@H]2O)[C@](C)(O)C[C@@H](C)[C@@H]2N[C@@H](COCCOC)O[C@H]([C@H]2C)[C@]1(C)O` : what is it?
63.9

If you can, please state the reported double positive events value of `CN(C)c1nc(N(C)C)nc(N(C)C)n1` .
63

Which double positive events value belongs to `COc1ccc(CN(C)CCc2ccccn2)cc1OC` ?
55.5
